test system: Saccharomyces cerevisiae; assay: protein stability index of tFT-peptide fusion (C-terminal peptide) (PSI (0-1 scale)); higher = more stable (slower turnover); settings: genetic background: das1 deletion; temperature: 30 C
reported_endpoint: protein stability index
Could you respond with only the numeric value?

Which measured protein stability index value corresponds to DPERQNNSNFYN [SMC6 C-terminal 12 aa] ? 0.702

Fill in the blank: the reported protein stability index of EPSLRGHLIFVL [YBR300C C-terminal 12 aa] is ____. 0.515

Param item = ELKRSGKLTRSV [TRM7 C-terminal 12 aa] ; retrieve measured protein stability index. 0.699

Value lookup for protein stability index; key = PVGAGNEPINPE [URN1 C-terminal 12 aa] 0.684

So what's the measured protein stability index for this one? KITVSNLTNQQI [YCL001W-B C-terminal 12 aa] 0.675

# get_value(readout='protein stability index', item= SRVDEVVTKYSH [AAH1 C-terminal 12 aa] ) 0.7

# get_value(readout='protein stability index', item= ANHNNQRAGYFL [SIT4 C-terminal 12 aa] ) 0.699

Return reported protein stability index; argument: LLTYFRKHVKDT [SCC2 C-terminal 12 aa] 0.714

I have this sequence here, DTTFTGCTKKIL [YGL102C C-terminal 12 aa] , and I need its recorded protein stability index. 0.698

Fill in the blank: the reported protein stability index of IKALQDSLFKDV [NUP188 C-terminal 12 aa] is ____. 0.718

For the sequence ESKKTKGEELTL [ARG1 C-terminal 12 aa] , what protein stability index is on record? 0.679

Using the record for EEADSLYISMGL [LCD1 C-terminal 12 aa] , report its protein stability index. 0.709

Reported protein stability index for LPLYYVYQCDMI [YDR094W C-terminal 12 aa] : what is it? 0.664

Requested field: protein stability index. Item: QSLLDSLAKLQK [NAB3 C-terminal 12 aa] 0.667

Field request: protein stability index | item: LGQAVVKAINFA [YBR277C C-terminal 12 aa] 0.68

Consider the sequence shown here: IAVNYGQKDLIE [BRR1 C-terminal 12 aa] What is its recorded protein stability index? 0.697

So what does the record say about protein stability index for KFFNYDGSEGVF [OSI1 C-terminal 12 aa] ? 0.709

So what's the measured protein stability index for this one? ELRERLLRPSKK [YPL245W C-terminal 12 aa] 0.725

Any idea what protein stability index was measured for CLFRYKQLPRRV [MCH2 C-terminal 12 aa] ? 0.69

Reported protein stability index for IPKIPKIVNGFK [DCS1 C-terminal 12 aa] : what is it? 0.694

Fill blank: measured protein stability index of the sequence LYKRWVPGRNRD [SEN2 C-terminal 12 aa] is ____. 0.696

Any idea what its protein stability index is? The sequence is CVWESMSNWLQK [YEL034C-A C-terminal 12 aa] 0.724

Given the sequence LSKKDYSIDSIE [TPO3 C-terminal 12 aa] , what is its reported protein stability index? 0.726

Query (sequence): ANTHSSLICSKP [YBR209W C-terminal 12 aa] ; field requested: protein stability index 0.685

// lookup protein stability index for EKFLGKKKTKTD [GPI16 C-terminal 12 aa] 0.701

Given the entry KISKSELEGVPS [MTC6 C-terminal 12 aa] , report its measured protein stability index. 0.722

Quick one: protein stability index of VMAWTFGYALIG [EMC6 C-terminal 12 aa] ? 0.654

Tell me the measured protein stability index of IGEFADNVMPLA [PRY2 C-terminal 12 aa] , please. 0.709

Return reported protein stability index; argument: QNEQLQMLSNSV [ATG31 C-terminal 12 aa] 0.723

Return reported protein stability index; argument: LSNQNSPLFLYH [YHR175W-A C-terminal 12 aa] 0.705

Which protein stability index reading was recorded for the sequence KYESATASALVN [RPS13 C-terminal 12 aa] ? 0.697

State the recorded protein stability index for this entry: CIVNLASDTISL [YOL150C C-terminal 12 aa] 0.709

What does the data say about its protein stability index? Entry: ENVEEDKEVHTN [PBI2 C-terminal 12 aa] 0.675

May I ask what protein stability index has been recorded for KGKSFILDSSKL [MDH3 C-terminal 12 aa] ? 0.772

So what does the record say about protein stability index for AAELRDISQCDV [OPI8 C-terminal 12 aa] ? 0.682

Sample LVIDQITQLRQQ [COG1 C-terminal 12 aa] — what was its protein stability index? 0.697

Need protein stability index, item TLNVSNISHYSL [GAL80 C-terminal 12 aa] 0.703

Quick one: protein stability index for FWHEVVVFPIPN [YDR015C C-terminal 12 aa] ? 0.717

Would you mind telling me what protein stability index value was observed for NPGFIVEKRTID [MRPL33 C-terminal 12 aa] ? 0.697

###

tested on: Saccharomyces cerevisiae; test: protein stability index of tFT-peptide fusion (C-terminal peptide) (PSI (0-1 scale)); higher = more stable (slower turnover); settings: genetic background: wild type; temperature: 30 C
reported_endpoint: protein stability index
Enter the number alone.

Need protein stability index of PSHLHERIRPAR , thanks. 0.726

Can you look up the measured protein stability index of PEVRTNKQHQER for me? 0.746

What protein stability index value was documented for this sequence, NRDSALGPTWAP ? 0.718

Name the reported protein stability index value associated with the sequence PLQEHYRQIFPD 0.71

Look up protein stability index: DRSTGVNKSFPS 0.7

Requested read-out: protein stability index. Entry: GRDKLNEDRDKV 0.647

Which value of protein stability index has been reported for LFDVLFVFSFIF in the records? 0.449

For the sequence MCLSYLSIFLSL , what protein stability index is on record? 0.548

Would you mind telling me what protein stability index value was observed for SPLPPSRSVHCA ? 0.748

So what does the record say about protein stability index for PYIPSSVSLRQD ? 0.712

Bench note: what protein stability index did SERPVPTSISLR show? 0.682

Item under review: GGGGGGVRWASG . Reported protein stability index? 0.707

Dear colleague, I am looking for the recorded protein stability index of the following sequence: LRPCVSHLHLQN 0.677

Can you share its protein stability index? I mean this sequence: SRAPHPPPPTLP 0.711

Can you look up the measured protein stability index of RNIMKQQNTSIR for me? 0.717

Return reported protein stability index; argument: EKKYKKKYKKKE 0.641

Given the entry KTGLMRGHEVAS , report its measured protein stability index. 0.673

Consider the sequence GKRHICFNHSGE and give its measured protein stability index. 0.697

Recorded protein stability index of PPSARLPPPPPR , please. 0.789

Fill blank: measured protein stability index of the sequence VLGVGSFCLGVV is ____. 0.622

Given the entry VPFRLFSSYLSG , report its measured protein stability index. 0.641

If you can, please state the reported protein stability index value of VYVEMWGTSENW . 0.653

Dear colleague, I am looking for the recorded protein stability index of the following sequence: GKAGGNREGTGT 0.689

So what's the measured protein stability index for this one? EKIIVAVLFVVP 0.437

Entry PPARLPLPPPSP : reported protein stability index = ? 0.753

I would be grateful if you could share the reported protein stability index for GSVNGDTVGTQQ . 0.708

So what's the measured protein stability index for this one? PLLPLPRFPLFA 0.41

Sample SRARADTSRRRA — what was its protein stability index? 0.706

Please look up its protein stability index: RPGDAASGARGA 0.691

Which protein stability index reading was recorded for the sequence SPPLTLPPYPPP ? 0.715

Need protein stability index of KASAASLFILMS , thanks. 0.611

Quick one: protein stability index for TYLQYKQKMKKH ? 0.686

Entry KKQHTKKKKKKR : reported protein stability index = ? 0.752

Recorded protein stability index for KKTRRGSNKKEG , please? 0.681

Which value of protein stability index has been reported for PPDGRPPPLRLM in the records? 0.679

Param item = WLLSVYSVGTDV ; retrieve measured protein stability index. 0.589

# protein stability index lookup, item SPPLPPPPPFPL 0.74

Need protein stability index, item CLFPPYDYFFPF 0.734

Param item = GSMTGYVRVGEG ; retrieve measured protein stability index. 0.57

Form field: reported protein stability index of GLNPPDPYPVSF 0.754

# lookup: protein stability index of LLVVFSCFTFMF 0.38

What does the data say about its protein stability index? Entry: VLGGGPSIRGLM 0.655

Entry TCPPAPSTGPST has what protein stability index? 0.648

Please look up its protein stability index: SRSRPLCGVSGV 0.687

Name the reported protein stability index value associated with the sequence EKRINLKKRGKT 0.669

What measured protein stability index goes with RCPPPQPPVRKV ? 0.642

Given LHHGMVDDCIKK , state its recorded protein stability index. 0.701

Would you kindly share the measured protein stability index for LPAPPTPRPAPP ? 0.706

Consider the sequence TSPPPPSPPAHH and give its measured protein stability index. 0.625

What value of measured protein stability index is listed for SSFPPPPAAPPP ? 0.667

Fill blank: measured protein stability index of the sequence PQYLPLLPSPSP is ____. 0.632

Bench note: what protein stability index did SLSHSPSPPPPT show? 0.638

Form field: reported protein stability index of SLFDQDCGGTVW 0.764

protein stability index for PPRPPPPPAHPP ? 0.557

// query protein stability index value for entry PGIGMVCAVAEG 0.687

Fill in the blank: the reported protein stability index of RKMQKKFESKKM is ____. 0.76

// returns reported protein stability index for input TPLSPPALPPPS 0.659

Look up protein stability index for this sequence: PPRPDRSSLPPF 0.712

Which protein stability index value is on record for GVQFSVWCGSVG ? 0.7

GET /values?readout=protein stability index&item= WGEGSGRVWEIS 0.679

Would you kindly share the measured protein stability index for DIRRWQWWFMVR ? 0.613

Could you share which protein stability index value was measured for GVVMLSDDGSAW ? 0.718
